Assignment: determine reported IC50 for the given binders.
Biological target: T1, CCR5 (UniProt P51681 1-352, limits assumed)
T1 construct: whole, on cells; L1.2/CCR5 cells for chemotaxis; also called CCR5-expressing CHO membranes; L1.2/CCR5 transfectants
T1 sequence (P51681 whole entry): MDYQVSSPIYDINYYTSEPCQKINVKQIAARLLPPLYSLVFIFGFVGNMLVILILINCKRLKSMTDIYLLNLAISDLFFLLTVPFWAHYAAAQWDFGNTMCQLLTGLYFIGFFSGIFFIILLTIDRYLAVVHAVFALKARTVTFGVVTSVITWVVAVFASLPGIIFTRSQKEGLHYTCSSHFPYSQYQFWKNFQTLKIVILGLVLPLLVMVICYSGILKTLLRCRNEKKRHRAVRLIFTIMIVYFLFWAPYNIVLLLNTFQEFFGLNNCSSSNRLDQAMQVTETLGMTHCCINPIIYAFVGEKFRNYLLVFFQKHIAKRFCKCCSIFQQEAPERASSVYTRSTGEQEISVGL
Assay: competition SPA, displacement of 125I-MIP-1α from CCR5 CHO membranes

binder	result
Met-RANTES (ligand, The build (Met + mature RANTES) comes from the background description and the name) MSPYSSDTTPCCFAYIARPLPRAHIKEYFYTSGKCSNPAVVFVTRKNRQVCANPEKKWVREYINSLEMS	15.2 nM
S5C-5 kDaPEG-RANTES (ligand, also called S5C-5 kDa-RANTES) SPYSC(mPEG‑MAL 5 kDa)DTTPCCFAYIARPLPRAHIKEYFYTSGKCSNPAVVFVTRKNRQVCANPEKKWVREYINSLEMS	902 nM
S4C-5 kDaPEG-RANTES (ligand, This is probably a printing error; also called S4C-5 kDa-RANTES) SPYC(mPEG‑MAL 5 kDa)SDTTPCCFAYIARPLPRAHIKEYFYTSGKCSNPAVVFVTRKNRQVCANPEKKWVREYINSLEMS	40 nM

Now examine the next entry.
# IC50 (binder: S1C-5 kDaPEG-RANTES (ligand, Expressed without a leader; also called S1C-5 kDa-RANTES) C(mPEG‑MAL 5 kDa)PYSSDTTPCCFAYIARPLPRAHIKEYFYTSGKCSNPAVVFVTRKNRQVCANPEKKWVREYINSLEMS ) is 41 nM
